# k2 values compiled below
- target.desc: T1, Caspase-3 (UniProt P42574 29-277)
- T1 sequence (looked up): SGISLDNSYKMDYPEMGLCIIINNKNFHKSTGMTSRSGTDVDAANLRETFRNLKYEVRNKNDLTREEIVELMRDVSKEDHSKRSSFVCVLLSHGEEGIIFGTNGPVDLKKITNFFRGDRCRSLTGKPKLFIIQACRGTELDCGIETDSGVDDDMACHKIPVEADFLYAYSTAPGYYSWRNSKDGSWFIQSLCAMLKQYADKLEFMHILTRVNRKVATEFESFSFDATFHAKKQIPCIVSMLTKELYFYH
- test.description: cell-based or functional assay
Numbered stars: 1 amine (or outer) side, 2 acyl side, 3 side chain; on linkers, the order of the positions; unused ones are H or OH. Square brackets hold non-standard residues; d marks the D form. * marks the point of attachment. AAsp = aza-Asp, O=C(N(CC(=O)[*:3])N[*:1])[*:2]; CH═CH‑CON(CH3)CH2Ph = CN(Cc1ccccc1)C(=O)/C=C/*; CH═CH‑COOEt = CCOC(=O)/C=C/*; Cbz = O=C(OCc1ccccc1)*

# binder, k2 / M⁻¹ s⁻¹
data = [
    ("Cbz-Glu-Val-[AAsp]-{CH═CH‑COOEt} (SMILES CCOC(=O)/C=C/C(=O)N(CC(=O)O)NC(=O)[C@@H](NC(=O)[C@H](CCC(=O)O)NC(=O)OCc1ccccc1)C(C)C) [Cbz-Glu-Val-AAsp-CH═CH-COOEt]", 38600),
    ("Cbz-DEV[AAsp]-{CH═CH‑CON(CH3)CH2Ph} (SMILES CC(C)[C@H](NC(=O)[C@H](CCC(=O)O)NC(=O)[C@H](CC(=O)O)NC(=O)OCc1ccccc1)C(=O)NN(CC(=O)O)C(=O)/C=C/C(=O)N(C)Cc1ccccc1) [Cbz-Asp-Glu-Val-AAsp-CH═CH-CON(CH3)CH2Ph]", "2.64e+06"),
    ("Cbz-LET[AAsp]-{CH═CH‑CONHCH2CH2Ph} [Cbz-Leu-Glu-Thr-AAsp-CH═CH-CONHCH2CH2Ph]", 5400),
]
